This listing pairs variants with measured protein stability index.
B1: ZNF449 (parent)
chain: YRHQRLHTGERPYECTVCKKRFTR

Variants of: B1
experiment_notes: protein stability index of a GFP-peptide fusion (GPS, HEK-293T) (PSI 1-6); higher = more stable;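 note: lentivirally expressed fusions sorted by FACS into six bins by GFP to DsRed ratio, PSI derived from sequencing read proportions per bin multiplied by bin number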
reported_conditions: c terminus: a fixed tail appended
endpoint_label: protein stability index

[[record]]
variant_label = "L6E"
endpoint_label = "protein stability index"
observed_result = 2.09

[[record]]
variant_label = "Y1N"
endpoint_label = "protein stability index"
observed_result = 2.35

[[record]]
variant_label = "T23S"
endpoint_label = "protein stability index"
observed_result = 2.09

[[record]]
variant_label = "R2Y"
endpoint_label = "protein stability index"
observed_result = 2.38

[[record]]
variant_label = "T23W"
endpoint_label = "protein stability index"
observed_result = 2.13

[[record]]
variant_label = "Y1W"
endpoint_label = "protein stability index"
observed_result = 1.97

[[record]]
variant_label = "T8S"
endpoint_label = "protein stability index"
observed_result = 2.71

[[record]]
variant_label = "C18P"
endpoint_label = "protein stability index"
observed_result = 3.45

[[record]]
variant_label = "R2C"
endpoint_label = "protein stability index"
observed_result = 2.66

[[record]]
variant_label = "R5Y"
endpoint_label = "protein stability index"
observed_result = 2.2

[[record]]
variant_label = "L6T"
endpoint_label = "protein stability index"
observed_result = 2.51

[[record]]
variant_label = "C18L"
endpoint_label = "protein stability index"
observed_result = 2.6

[[record]]
variant_label = "T23Y"
endpoint_label = "protein stability index"
observed_result = 2.78

[[record]]
variant_label = "L6I"
endpoint_label = "protein stability index"
observed_result = 2.37

[[record]]
variant_label = "Y1K"
endpoint_label = "protein stability index"
observed_result = 2.77

[[record]]
variant_label = "K19V"
endpoint_label = "protein stability index"
observed_result = 2.3

[[record]]
variant_label = "Q4D"
endpoint_label = "protein stability index"
observed_result = 2.22

[[record]]
variant_label = "T8D"
endpoint_label = "protein stability index"
observed_result = 2.27

[[record]]
variant_label = "K20V"
endpoint_label = "protein stability index"
observed_result = 2.3

[[record]]
variant_label = "H3W"
endpoint_label = "protein stability index"
observed_result = 1.65

[[record]]
variant_label = "C18M"
endpoint_label = "protein stability index"
observed_result = 2.56

[[record]]
variant_label = "C18H"
endpoint_label = "protein stability index"
observed_result = 3.48

